Attribution: ChEMBL document CHEMBL2413072

Could you please report measured growth at 0.01 µM for the items listed next?
- Test system: HCT-15
- procedure summary: Growth inhibition of human HCT15 cells assessed as cell growth at 10^-8 M by sulforhodamine B assay
- Type: functional
- measurement conditions: read-out: Activity
Form entry: value (%) — number only.

State the recorded growth at 0.01 µM for this entry: CC(C)=CC(=O)O[C@@H]1CC(C)(C)C[C@H]2C3=CC[C@@H]4[C@@]5(C)CC[C@H](O)C(C)(C)[C@@H]5CC[C@@]4(C)[C@]3(C)CC[C@@]12C(=O)O
93

State the recorded growth at 0.01 µM for this entry: C/C=C(/C)C(=O)O[C@@H]1CC(C)(C)C[C@H]2C3=CC[C@@H]4[C@@]5(C)CCC(=O)C(C)(C)[C@@H]5CC[C@@]4(C)[C@]3(C)CC[C@@]12C(=O)O
100

State the recorded growth at 0.01 µM for this entry: CC(C)=CC(=O)O[C@@H]1CC(C)(C)C[C@H]2C3=CC[C@@H]4[C@@]5(C)CCC(=O)C(C)(C)[C@@H]5CC[C@@]4(C)[C@]3(C)CC[C@@]12C(=O)O
93

State the recorded growth at 0.01 µM for this entry: C/C=C(/C)C(=O)O[C@@H]1CC(C)(C)C[C@H]2C3=CC[C@@H]4[C@@]5(C)CC[C@H](O)C(C)(C)[C@@H]5CC[C@@]4(C)[C@]3(C)CC[C@@]12C(=O)O
100

State the recorded growth at 0.01 µM for this entry: CC1(C)C[C@@H](O)[C@]2(C(=O)O)CC[C@]3(C)C(=CC[C@@H]4[C@@]5(C)C/C(=C\C=C\c6ccccc6)C(=O)C(C)(C)[C@@H]5CC[C@]43C)[C@@H]2C1
97

====

- Tested on: LOX IMVI
- procedure summary: Growth inhibition of human LOXIMVI cells by sulforhodamine B assay
- Type: functional
- measurement conditions: read-out: pGI50 (converted)
Could you please report measured GI50 for the items listed next?
Form entry: value (µM) — number only.

State the recorded GI50 for this entry: CC1(C)C[C@@H](O)[C@]2(C(=O)O)CC[C@]3(C)C(=CC[C@@H]4[C@@]5(C)C/C(=C\C=C\c6ccccc6)C(=O)C(C)(C)[C@@H]5CC[C@]43C)[C@@H]2C1
1.91

State the recorded GI50 for this entry: CC(C)=CC(=O)O[C@@H]1CC(C)(C)C[C@H]2C3=CC[C@@H]4[C@@]5(C)CCC(=O)C(C)(C)[C@@H]5CC[C@@]4(C)[C@]3(C)CC[C@@]12C(=O)O
6.31

State the recorded GI50 for this entry: C/C=C(/C)C(=O)O[C@@H]1CC(C)(C)C[C@H]2C3=CC[C@@H]4[C@@]5(C)CC[C@H](O)C(C)(C)[C@@H]5CC[C@@]4(C)[C@]3(C)CC[C@@]12C(=O)O
3.39

State the recorded GI50 for this entry: C/C=C(/C)C(=O)O[C@@H]1CC(C)(C)C[C@H]2C3=CC[C@@H]4[C@@]5(C)CCC(=O)C(C)(C)[C@@H]5CC[C@@]4(C)[C@]3(C)CC[C@@]12C(=O)O
7.76

State the recorded GI50 for this entry: CC(C)=CC(=O)O[C@@H]1CC(C)(C)C[C@H]2C3=CC[C@@H]4[C@@]5(C)CC[C@H](O)C(C)(C)[C@@H]5CC[C@@]4(C)[C@]3(C)CC[C@@]12C(=O)O
9.12

====

- Test system: PC-3
- procedure summary: Growth inhibition of human PC3 cells assessed as cell growth at 10^-8 M by sulforhodamine B assay
- Type: functional
- measurement conditions: read-out: Activity
measurement kind: growth at 0.01 µM (%)
Form entry: value (%) — number only.

Find growth at 0.01 µM (PC-3) for the entry CC(C)=CC(=O)O[C@@H]1CC(C)(C)C[C@H]2C3=CC[C@@H]4[C@@]5(C)CC[C@H](O)C(C)(C)[C@@H]5CC[C@@]4(C)[C@]3(C)CC[C@@]12C(=O)O
97

Find growth at 0.01 µM (PC-3) for the entry CC(C)=CC(=O)O[C@@H]1CC(C)(C)C[C@H]2C3=CC[C@@H]4[C@@]5(C)CCC(=O)C(C)(C)[C@@H]5CC[C@@]4(C)[C@]3(C)CC[C@@]12C(=O)O
96

Find growth at 0.01 µM (PC-3) for the entry C/C=C(/C)C(=O)O[C@@H]1CC(C)(C)C[C@H]2C3=CC[C@@H]4[C@@]5(C)CC[C@H](O)C(C)(C)[C@@H]5CC[C@@]4(C)[C@]3(C)CC[C@@]12C(=O)O
92

Find growth at 0.01 µM (PC-3) for the entry C/C=C(/C)C(=O)O[C@@H]1CC(C)(C)C[C@H]2C3=CC[C@@H]4[C@@]5(C)CCC(=O)C(C)(C)[C@@H]5CC[C@@]4(C)[C@]3(C)CC[C@@]12C(=O)O
93

Find growth at 0.01 µM (PC-3) for the entry CC1(C)C[C@@H](O)[C@]2(C(=O)O)CC[C@]3(C)C(=CC[C@@H]4[C@@]5(C)C/C(=C\C=C\c6ccccc6)C(=O)C(C)(C)[C@@H]5CC[C@]43C)[C@@H]2C1
97

====

- System: CCRF-CEM
- procedure summary: Growth inhibition of human CCRF-CEM cells assessed as growth inhibition at 10 uM by sulforhodamine B assay
- Format: functional
- measurement conditions: read-out: GI
Could you please report measured inhibition of growth at 10 µM for the items listed next?
Form entry: value (%) — number only.

State the recorded inhibition of growth at 10 µM for this entry: C/C=C(/C)C(=O)O[C@@H]1CC(C)(C)C[C@H]2C3=CC[C@@H]4[C@@]5(C)CCC(=O)C(C)(C)[C@@H]5CC[C@@]4(C)[C@]3(C)CC[C@@]12C(=O)O [LANTADENE A]
56.4

State the recorded inhibition of growth at 10 µM for this entry: CC(C)=CC(=O)O[C@@H]1CC(C)(C)C[C@H]2C3=CC[C@@H]4[C@@]5(C)CCC(=O)C(C)(C)[C@@H]5CC[C@@]4(C)[C@]3(C)CC[C@@]12C(=O)O
74.7

State the recorded inhibition of growth at 10 µM for this entry: CC1(C)C[C@@H](O)[C@]2(C(=O)O)CC[C@]3(C)C(=CC[C@@H]4[C@@]5(C)CCC(=O)C(C)(C)[C@@H]5CC[C@]43C)[C@@H]2C1
12.5

State the recorded inhibition of growth at 10 µM for this entry: COc1cc(/C=C2\C[C@]3(C)[C@H]4CC=C5[C@@H]6CC(C)(C)C[C@@H](O)[C@]6(C(=O)O)CC[C@@]5(C)[C@]4(C)CC[C@H]3C(C)(C)C2=O)ccc1O
18

State the recorded inhibition of growth at 10 µM for this entry: CC1(C)C[C@@H](O)[C@]2(C(=O)O)CC[C@]3(C)C(=CC[C@@H]4[C@@]5(C)CC[C@H](O)C(C)(C)[C@@H]5CC[C@]43C)[C@@H]2C1
11.6

====

- System: HL-60(TB)
- procedure summary: Growth inhibition of human HL-60(TB) cells by sulforhodamine B assay
- Type: functional
- measurement conditions: read-out: pTGI (converted)
measurement kind: TGI (µM)
Form entry: value (µM) — number only.

State the recorded TGI for this entry: CC(C)=CC(=O)O[C@@H]1CC(C)(C)C[C@H]2C3=CC[C@@H]4[C@@]5(C)CCC(=O)C(C)(C)[C@@H]5CC[C@@]4(C)[C@]3(C)CC[C@@]12C(=O)O
5.37

State the recorded TGI for this entry: C/C=C(/C)C(=O)O[C@@H]1CC(C)(C)C[C@H]2C3=CC[C@@H]4[C@@]5(C)CCC(=O)C(C)(C)[C@@H]5CC[C@@]4(C)[C@]3(C)CC[C@@]12C(=O)O
5.25

State the recorded TGI for this entry: CC(C)=CC(=O)O[C@@H]1CC(C)(C)C[C@H]2C3=CC[C@@H]4[C@@]5(C)CC[C@H](O)C(C)(C)[C@@H]5CC[C@@]4(C)[C@]3(C)CC[C@@]12C(=O)O
6.92

State the recorded TGI for this entry: CC1(C)C[C@@H](O)[C@]2(C(=O)O)CC[C@]3(C)C(=CC[C@@H]4[C@@]5(C)C/C(=C\C=C\c6ccccc6)C(=O)C(C)(C)[C@@H]5CC[C@]43C)[C@@H]2C1
6.92

State the recorded TGI for this entry: C/C=C(/C)C(=O)O[C@@H]1CC(C)(C)C[C@H]2C3=CC[C@@H]4[C@@]5(C)CC[C@H](O)C(C)(C)[C@@H]5CC[C@@]4(C)[C@]3(C)CC[C@@]12C(=O)O
4.9

====

- System: MDA-MB-435
- procedure summary: Growth inhibition of human MDA-MB-435 cells by sulforhodamine B assay
- Assay type: functional
- measurement conditions: read-out: pTGI (converted)
Could you please report measured TGI for the items listed next?

State the recorded TGI for this entry: C/C=C(/C)C(=O)O[C@@H]1CC(C)(C)C[C@H]2C3=CC[C@@H]4[C@@]5(C)CC[C@H](O)C(C)(C)[C@@H]5CC[C@@]4(C)[C@]3(C)CC[C@@]12C(=O)O
5.89 µM

State the recorded TGI for this entry: C/C=C(/C)C(=O)O[C@@H]1CC(C)(C)C[C@H]2C3=CC[C@@H]4[C@@]5(C)CCC(=O)C(C)(C)[C@@H]5CC[C@@]4(C)[C@]3(C)CC[C@@]12C(=O)O
> 100 µM

State the recorded TGI for this entry: CC(C)=CC(=O)O[C@@H]1CC(C)(C)C[C@H]2C3=CC[C@@H]4[C@@]5(C)CCC(=O)C(C)(C)[C@@H]5CC[C@@]4(C)[C@]3(C)CC[C@@]12C(=O)O
> 100 µM

State the recorded TGI for this entry: CC1(C)C[C@@H](O)[C@]2(C(=O)O)CC[C@]3(C)C(=CC[C@@H]4[C@@]5(C)C/C(=C\C=C\c6ccccc6)C(=O)C(C)(C)[C@@H]5CC[C@]43C)[C@@H]2C1
14.5 µM

State the recorded TGI for this entry: CC(C)=CC(=O)O[C@@H]1CC(C)(C)C[C@H]2C3=CC[C@@H]4[C@@]5(C)CC[C@H](O)C(C)(C)[C@@H]5CC[C@@]4(C)[C@]3(C)CC[C@@]12C(=O)O
47.9 µM
